# Tested on: B. cenocepacia 140485
# Type: cell-based, Burkholderia cenocepacia
# measurement-context: B. cenocepacia 140485
Consider the following molecules; for each one, report its MIC.
The reply should read as a number followed by its unit.

# return MIC for each item in the list
1. CP(C)C.CP(C)C.F[P-](F)(F)(F)(F)F.[Au+] [WB-19-HL4121a]
2. CC[P+](CC)(CC)[Au-][S][C@@H]1O[C@H](CO)[C@@H](O)[C@H](O)[C@H]1O [WB-18-FI3683]
3. CC(=O)OC[C@H]1O[C@@H]([S-])[C@H](OC(C)=O)[C@@H](OC(C)=O)[C@@H]1OC(C)=O.CCP(CC)CC.[Au+] [Auranofin]

1. 32 µg/mL
2. 64 µg/mL
3. 128 µg/mL

Provide MIC values for the following items, in order.
1. CC(=O)N[C@@H]1[C@@H](O)[C@H](O)[C@@H](CO)O[C@H]1[S][Au-][P+](C)(C)C [WB-19-HB2664]
2. C[P+](C)(C)[Au-][S]CC(O)CO (racemic) [WB-19-HL4171]

1. 128 µg/mL
2. 16 µg/mL

Hey, can you go through the list below and give me MIC for every item?
1. C[P+](C)(C)[Au-][S]CCN [WB-19-HL4181]
2. C[PH](C)(C)[Au][S]CCO [MS-40]
3. C[P+](C)(C)[Au-][S]CCCO [WB-19-HL4172]
4. CC(=O)OC[C@H]1O[C@@H]([S][Au-][P+](C)(C)C)[C@H](OC(C)=O)[C@@H](OC(C)=O)[C@@H]1OC(C)=O [WB-19-HG5899]
5. CC(O)C[S][Au-][P+](C)(C)C (centres unmarked) [MS-40S]
6. CC[P+](CC)(CC)[Au-][S]C1OC(CO)C(O)C(O)C1O (mixture of isomers) [WB-16-EO9899]

32 µg/mL
8 µg/mL
32 µg/mL
128 µg/mL
16 µg/mL
32 µg/mL

---

# Test system: B. contaminans FFH-4004
# Format: cell-based, Burkholderia contaminans
# measurement-context: Burkholderia contaminans, FFH4004
So I've got a bunch of molecules here, and I need their MIC values.
Give bare numbers, in µg/mL.

Check out these entries, answers already filled in.
molecule	system-name	MIC / µg/mL
C[C@H]1c2cccc(O)c2C(=O)C2=C(O)[C@]3(O)C(=O)C(C(N)=O)=C(O)[C@@H](N(C)C)[C@@H]3[C@@H](O)[C@@H]21 [DOX, doxycycline, reference compound]	B. contaminans FFH-4004	8
C[C@@H](O)[C@H]1C(=O)N2C(C(=O)O)=C(S[C@@H]3CN[C@H](C(=O)N(C)C)C3)[C@H](C)[C@H]12 [MEM, meropenem, reference compound]	B. contaminans FFH-4004	8
NC[C@H]1O[C@H](O[C@H]2[C@H](O)[C@@H](O[C@H]3O[C@H](CO)[C@@H](O)[C@H](N)[C@H]3O)[C@H](N)C[C@@H]2N)[C@H](N)C[C@@H]1O [TOB, tobramycin, reference compound]	B. contaminans FFH-4004	64

For the next question, use this molecule.
What the record says about CC(C)(O/N=C(\C(=O)N[C@@H]1C(=O)N2C(C(=O)[O-])=C(C[n+]3ccccc3)CS[C@H]12)c1csc(N)n1)C(=O)O [CAZ, ceftazidime, reference compound] : MIC is 8

---

# Test system: B. contaminans MF16
# Assay type: cell-based, Burkholderia contaminans
# measurement-context: Burkholderia contaminans, MF16
quantity-measured: MIC (µg/mL)
Numbers only, in µg/mL.

Please state MIC for every compound in the list that follows.
1. C[C@H]1c2cccc(O)c2C(=O)C2=C(O)[C@]3(O)C(=O)C(C(N)=O)=C(O)[C@@H](N(C)C)[C@@H]3[C@@H](O)[C@@H]21 [DOX, doxycycline, reference compound]
2. C[C@@H](O)[C@H]1C(=O)N2C(C(=O)O)=C(S[C@@H]3CN[C@H](C(=O)N(C)C)C3)[C@H](C)[C@H]12 [MEM, meropenem, reference compound]
3. NC[C@H]1O[C@H](O[C@H]2[C@H](O)[C@@H](O[C@H]3O[C@H](CO)[C@@H](O)[C@H](N)[C@H]3O)[C@H](N)C[C@@H]2N)[C@H](N)C[C@@H]1O [TOB, tobramycin, reference compound]
4. CC(C)(O/N=C(\C(=O)N[C@@H]1C(=O)N2C(C(=O)[O-])=C(C[n+]3ccccc3)CS[C@H]12)c1csc(N)n1)C(=O)O [CAZ, ceftazidime, reference compound]

[16, 8, 32, 32]

---

Hi there, I'd appreciate the recorded MIC for every entry that follows.
# System: B. lata BCC6
# Assay type: cell-based, Burkholderia lata
# measurement-context: Burkholderia lata, BCC6
Answers are plain numbers, in µg/mL.

molecule	unit-spec	readout-number
C[C@@H](O)[C@H]1C(=O)N2C(C(=O)O)=C(S[C@@H]3CN[C@H](C(=O)N(C)C)C3)[C@H](C)[C@H]12 [MEM, meropenem, reference compound]	µg/mL	4
CC(C)(O/N=C(\C(=O)N[C@@H]1C(=O)N2C(C(=O)[O-])=C(C[n+]3ccccc3)CS[C@H]12)c1csc(N)n1)C(=O)O [CAZ, ceftazidime, reference compound]	µg/mL	64
C[C@H]1c2cccc(O)c2C(=O)C2=C(O)[C@]3(O)C(=O)C(C(N)=O)=C(O)[C@@H](N(C)C)[C@@H]3[C@@H](O)[C@@H]21 [DOX, doxycycline, reference compound]	µg/mL	4

Recorded result, NC[C@H]1O[C@H](O[C@H]2[C@H](O)[C@@H](O[C@H]3O[C@H](CO)[C@@H](O)[C@H](N)[C@H]3O)[C@H](N)C[C@@H]2N)[C@H](N)C[C@@H]1O [TOB, tobramycin, reference compound] , MIC: 128

---

Give measured MIC for each item. Keep answers brief.
# Tested on: B. ubonensis LMG 20358
# Type: cell-based, Burkholderia ubonensis
# measurement-context: Burkholderia ubonensis, LMG20358
Numbers only, in µg/mL.

Dear colleague, could you send me MIC for each of the items below? Thanks.
1. C[C@@H](O)[C@H]1C(=O)N2C(C(=O)O)=C(S[C@@H]3CN[C@H](C(=O)N(C)C)C3)[C@H](C)[C@H]12 [MEM, meropenem, reference compound]
2. C[C@H]1c2cccc(O)c2C(=O)C2=C(O)[C@]3(O)C(=O)C(C(N)=O)=C(O)[C@@H](N(C)C)[C@@H]3[C@@H](O)[C@@H]21 [DOX, doxycycline, reference compound]
3. CC(C)(O/N=C(\C(=O)N[C@@H]1C(=O)N2C(C(=O)[O-])=C(C[n+]3ccccc3)CS[C@H]12)c1csc(N)n1)C(=O)O [CAZ, ceftazidime, reference compound]
4. NC[C@H]1O[C@H](O[C@H]2[C@H](O)[C@@H](O[C@H]3O[C@H](CO)[C@@H](O)[C@H](N)[C@H]3O)[C@H](N)C[C@@H]2N)[C@H](N)C[C@@H]1O [TOB, tobramycin, reference compound]

[16, 4, 16, 128]

---

# Test system: B. cenocepacia 140485
# Format: cell-based, Burkholderia cenocepacia
# measurement-context: Burkholderia cenocepacia, 140485
Assignment: determine reported MIC for the given molecules.
One number for each entry, in µg/mL.

Here are 2 molecules together with their reported answers.
molecule	system-name	quantity-measured	unit-spec	readout-number
CC(C)(O/N=C(\C(=O)N[C@@H]1C(=O)N2C(C(=O)[O-])=C(C[n+]3ccccc3)CS[C@H]12)c1csc(N)n1)C(=O)O [CAZ, ceftazidime, reference compound]	B. cenocepacia 140485	MIC	µg/mL	8
C[C@H]1c2cccc(O)c2C(=O)C2=C(O)[C@]3(O)C(=O)C(C(N)=O)=C(O)[C@@H](N(C)C)[C@@H]3[C@@H](O)[C@@H]21 [DOX, doxycycline, reference compound]	B. cenocepacia 140485	MIC	µg/mL	1

Could I get MIC for every one of these entries?
1. NC[C@H]1O[C@H](O[C@H]2[C@H](O)[C@@H](O[C@H]3O[C@H](CO)[C@@H](O)[C@H](N)[C@H]3O)[C@H](N)C[C@@H]2N)[C@H](N)C[C@@H]1O [TOB, tobramycin, reference compound]
2. C[C@@H](O)[C@H]1C(=O)N2C(C(=O)O)=C(S[C@@H]3CN[C@H](C(=O)N(C)C)C3)[C@H](C)[C@H]12 [MEM, meropenem, reference compound]

1. 128
2. 16
